All values here come from patent US11357246B2.

target.system: hT1R2/hT1R3 (Homo sapiens, UniProt Q7RTX0+Q8TE23)
Construct: expressed in transfected cells; parental cells lack the receptor
Sequence (Q8TE23 20-839): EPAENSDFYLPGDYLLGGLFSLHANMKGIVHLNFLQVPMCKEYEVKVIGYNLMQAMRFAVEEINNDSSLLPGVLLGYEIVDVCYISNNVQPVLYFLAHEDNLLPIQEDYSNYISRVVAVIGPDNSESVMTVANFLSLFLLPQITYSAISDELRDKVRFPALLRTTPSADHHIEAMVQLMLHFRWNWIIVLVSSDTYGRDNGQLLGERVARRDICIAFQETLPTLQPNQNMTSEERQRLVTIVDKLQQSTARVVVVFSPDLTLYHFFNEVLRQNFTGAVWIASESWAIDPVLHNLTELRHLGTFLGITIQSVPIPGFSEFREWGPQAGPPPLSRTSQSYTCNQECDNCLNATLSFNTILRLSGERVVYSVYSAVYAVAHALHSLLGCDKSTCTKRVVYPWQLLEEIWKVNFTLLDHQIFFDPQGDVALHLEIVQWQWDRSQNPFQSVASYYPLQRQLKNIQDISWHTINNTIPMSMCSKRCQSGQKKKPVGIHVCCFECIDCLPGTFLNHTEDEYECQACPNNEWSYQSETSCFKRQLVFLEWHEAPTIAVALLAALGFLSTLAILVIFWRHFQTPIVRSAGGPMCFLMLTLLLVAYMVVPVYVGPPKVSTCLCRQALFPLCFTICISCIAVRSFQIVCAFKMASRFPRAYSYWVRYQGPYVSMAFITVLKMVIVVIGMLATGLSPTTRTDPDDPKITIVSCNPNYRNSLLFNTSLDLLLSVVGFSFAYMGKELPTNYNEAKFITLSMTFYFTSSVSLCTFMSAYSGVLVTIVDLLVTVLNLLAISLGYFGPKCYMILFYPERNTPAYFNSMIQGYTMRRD
Sequence (Q7RTX0 21-852): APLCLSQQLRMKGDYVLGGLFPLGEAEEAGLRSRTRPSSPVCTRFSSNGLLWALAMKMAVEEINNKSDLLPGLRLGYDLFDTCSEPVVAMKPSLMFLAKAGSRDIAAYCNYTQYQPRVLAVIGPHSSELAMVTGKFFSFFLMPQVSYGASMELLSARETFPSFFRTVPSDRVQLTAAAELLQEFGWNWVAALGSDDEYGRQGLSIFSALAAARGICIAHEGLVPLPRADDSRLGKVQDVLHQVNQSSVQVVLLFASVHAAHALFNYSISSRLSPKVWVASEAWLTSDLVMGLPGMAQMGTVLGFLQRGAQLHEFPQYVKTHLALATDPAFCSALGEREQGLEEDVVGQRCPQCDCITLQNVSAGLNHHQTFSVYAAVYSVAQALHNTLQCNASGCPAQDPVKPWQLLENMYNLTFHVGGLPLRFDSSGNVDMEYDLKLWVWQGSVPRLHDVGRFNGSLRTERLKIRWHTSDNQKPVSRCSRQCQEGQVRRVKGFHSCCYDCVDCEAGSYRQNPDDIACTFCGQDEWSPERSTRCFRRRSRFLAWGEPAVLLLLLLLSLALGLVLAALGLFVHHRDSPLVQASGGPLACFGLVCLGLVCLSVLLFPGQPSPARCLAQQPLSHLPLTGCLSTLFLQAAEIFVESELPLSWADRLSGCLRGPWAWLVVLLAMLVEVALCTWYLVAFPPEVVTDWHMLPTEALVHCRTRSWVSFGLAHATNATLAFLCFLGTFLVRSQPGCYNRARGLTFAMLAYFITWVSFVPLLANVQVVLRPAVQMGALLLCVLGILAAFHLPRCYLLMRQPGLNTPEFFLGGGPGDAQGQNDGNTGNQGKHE
test.details: HTS-Sweet: FLIPR calcium fluorometric imaging assay in cells stably expressing the human sweet taste receptor and a promiscuous G protein
Type: cell-based
condition: FLIPR, Fluo-4AM, 10 concentrations 0.4 μM to 200 μM in duplicates; read-out: Compound EC50s for hT1R2/hT1R3
Method: Compound activity (EC50) was determined using an automated fluorometric imaging assay on a FLIPR instrument (Fluorometric […] Plate Reader, Molecular Devices, Sunnyvale, Calif.). […] Receptor activity was quantified by determining the maximal fluorescence increases (using a 480 nm excitation and 535 nm emission) after normalization to basal fluorescence intensity measured before stimulation. […]
pEC50: −log10 of the molar value.
quantity.kind: pEC50

Below are some compounds; for each one, tell me its pEC50.
1. C[C@H](CC[C@@H](O[C@@H]1O[C@H](CO[C@@H]2O[C@H](CO)[C@@H](O)[C@H](O)[C@H]2O)[C@@H](O)[C@H](O)[C@H]1O[C@@H]1O[C@H](CO)[C@@H](O)[C@H](O)[C@H]1O)C(C)(C)O)C1CC[C@@]2(C)C3CC=C4C(CC[C@H](O[C@@H]5O[C@H](CO[C@@H]6O[C@H](CO)[C@@H](O)[C@H](O)[C@H]6O)[C@@H](O)[C@H](O)[C@H]5O)C4(C)C)[C@]3(C)C=C[C@]12C (stereo partly drawn) [Compound 31]
2. C[C@H](CC[C@@H](O[C@@H]1O[C@H](CO[C@H]2O[C@H](CO)[C@@H](O)[C@H](O)[C@H]2O)[C@@H](O)[C@H](O)[C@H]1O[C@@H]1O[C@H](CO)[C@@H](O[C@H]2O[C@H](CO)[C@@H](O)[C@H](O)[C@H]2O)[C@H](O)[C@H]1O)C(C)(C)O)C1CC[C@@]2(C)C3CC=C4C(CC[C@H](O)C4(C)C)[C@]3(C)[C@H](O)C[C@]12C (stereo partly drawn) [Compound 16]
3. C[C@H](CC[C@@H](O[C@@H]1O[C@H](CO[C@H]2O[C@H](CO)[C@@H](O)[C@H](O)[C@H]2O)[C@@H](O)[C@H](O)[C@H]1O[C@@H]1O[C@H](CO)[C@@H](O)[C@H](O)[C@H]1O)C(C)(C)O)C1CC[C@@]2(C)C3CC=C4C(CC[C@H](O[C@@H]5O[C@H](CO)[C@@H](O[C@H]6O[C@H](CO)[C@@H](O)[C@H](O)[C@H]6O)[C@H](O)[C@H]5O)C4(C)C)[C@]3(C)[C@H](O)C[C@]12C (stereo partly drawn) [Compound 5]

Out:
["< 4.52", "4.52 to 4.77", "4.52 to 4.77"]

====

target.system: hT1R2/hT1R3 (Homo sapiens, UniProt Q7RTX0+Q8TE23)
Construct: expressed in transfected cells; parental cells lack the receptor
test.details: HTS-Sweet: FLIPR calcium fluorometric imaging assay in cells stably expressing the human sweet taste receptor and a promiscuous G protein
Type: cell-based
condition: FLIPR, Fluo-4AM, 10 concentrations 0.4 μM to 200 μM in duplicates; read-out: Compound EC50s for hT1R2/hT1R3
pEC50: −log10 of the molar value.
Field: pEC50. Provide a value for each of the compounds that follow.

compound	target.system	pEC50
C[C@H](CC[C@@H](O[C@@H]1O[C@H](CO[C@@H]2O[C@H](CO)[C@@H](O)[C@H](O)[C@H]2O)[C@@H](O)[C@H](O)[C@H]1O[C@@H]1O[C@H](CO)[C@@H](O)[C@H](O)[C@H]1O)C(C)(C)O)C1CC[C@@]2(C)C3CC=C4C(CC[C@H](O[C@@H]5O[C@H](CO[C@H]6O[C@H](CO[C@H]7O[C@@H](CO)[C@H](O)[C@@H](O)[C@@H]7O)[C@@H](O)[C@H](O)[C@H]6O)[C@@H](O)[C@H](O)[C@H]5O)C4(C)C)[C@]3(C)[C@H](O)C[C@]12C (stereo partly shown)	hT1R2/hT1R3 (Homo sapiens, UniProt Q7RTX0+Q8TE23)	4.52 to 4.77

Items follow; give pEC50 for each.
1. C[C@H](CC[C@@H](O[C@@H]1O[C@H](CO)[C@@H](O)[C@H](O)[C@H]1O[C@@H]1O[C@H](CO)[C@@H](O)[C@H](O)[C@H]1O)C(C)(C)O)C1CC[C@@]2(C)C3CC=C4C(CC[C@H](O[C@@H]5O[C@H](CO[C@H]6O[C@H](COC7O[C@H](CO)[C@@H](O)[C@H](O)[C@H]7O)[C@@H](O)[C@H](O)[C@H]6O)[C@@H](O)[C@H](O)[C@H]5O)C4(C)C)[C@]3(C)[C@H](O)C[C@]12C (stereo partly shown)
2. C[C@H](CC[C@@H](O[C@@H]1O[C@H](CO)[C@@H](O)[C@H](O)[C@H]1O[C@@H]1O[C@H](CO)[C@@H](O[C@@H]2O[C@H](CO)[C@@H](O)[C@H](O)[C@H]2O)[C@H](O)[C@H]1O)C(C)(C)O)C1CC[C@@]2(C)C3CC=C4C(CC[C@H](O[C@@H]5O[C@H](CO)[C@@H](O)[C@H](O)[C@H]5O)C4(C)C)[C@]3(C)[C@H](O)C[C@]12C (stereo partly shown)
3. C[C@H](CC[C@@H](O[C@@H]1O[C@H](CO)[C@@H](O[C@@H]2O[C@H](CO)[C@@H](O)[C@H](O)[C@H]2O)[C@H](O)[C@H]1O[C@@H]1O[C@H](CO)[C@@H](O)[C@H](O)[C@H]1O)C(C)(C)O)C1CC[C@@]2(C)C3CC=C4C(CC[C@H](O)C4(C)C)[C@]3(C)[C@H](O)C[C@]12C (stereo partly shown)

Out:
< 4.52
4.52 to 4.77
4.52 to 4.77
